# experimental_protocol: Hematology assays in cynomolgus monkeys (Example 45)
# Type: in vivo
# condition_parameters: day 43; escalating dose regimen
This listing pairs substances with measured WBC count.
measured_metric: WBC count

substance	measured_metric	experimental_value
ISIS 416850: MOE gapmer, nucleobases 1275 to 1318 of SEQ ID NO: 1 (Table 8) (antisense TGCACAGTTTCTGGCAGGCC; MOE gapmer, wing and gap sizes not given here)	WBC count	9000 µL⁻¹
ISIS 416838: MOE gapmer, nucleobases 1018 to 1042 of SEQ ID NO: 1 (Table 6) (antisense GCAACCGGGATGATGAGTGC; MOE gapmer, wing and gap sizes not given here)	WBC count	10000 µL⁻¹

---

# experimental_protocol: Hematology assays in cynomolgus monkeys (Example 45)
# Format: in vivo
# condition_parameters: day 29
measured_metric: platelet count (µL⁻¹)

substance	measurement_unit	experimental_value
ISIS 416850: MOE gapmer, nucleobases 1275 to 1318 of SEQ ID NO: 1 (Table 8) (antisense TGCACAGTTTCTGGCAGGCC; MOE gapmer, wing and gap sizes not given here)	µL⁻¹	475000
ISIS 416858: MOE gapmer, nucleobases 1275 to 1318 of SEQ ID NO: 1 (Table 8) (antisense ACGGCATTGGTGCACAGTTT; MOE gapmer, wing and gap sizes not given here)	µL⁻¹	336000
ISIS 417002: MOE gapmer, nucleobases 1275 to 1318 of SEQ ID NO: 1 (Table 8) (antisense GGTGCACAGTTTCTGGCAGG; MOE gapmer, wing and gap sizes not given here)	µL⁻¹	410000
ISIS 416838: MOE gapmer, nucleobases 1018 to 1042 of SEQ ID NO: 1 (Table 6) (antisense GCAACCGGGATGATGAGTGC; MOE gapmer, wing and gap sizes not given here)	µL⁻¹	337000
ISIS 416864: MOE gapmer, nucleobases 1275 to 1318 of SEQ ID NO: 1 (Table 8) (antisense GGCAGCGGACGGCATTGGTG; MOE gapmer, wing and gap sizes not given here)	µL⁻¹	397000

---

# experimental_protocol: Hematology assays in cynomolgus monkeys (Example 46)
# Format: in vivo
# condition_parameters: Day-5
# Description: Groups, each consisting of two male and two female monkeys, were injected subcutaneously with 25 mg/kg of ISIS 416850, ISIS 449709, ISIS 445522, ISIS 449710, ISIS 449707, ISIS 449711, ISIS 449708, 416858, and ISIS 445531. […] Body weights were taken 14 days and 7 days before the start of treatment and were then measured weekly throughout the treatment period. […]
Strand notation (5' to 3'): a small letter for the sugar, then the base; units joined by * are phosphorothioate-linked, units joined directly phosphodiester-linked; [ ] holds rarer units or linkages, { } end groups; capitals alone tell only the bases. e = 2'-O-(2-methoxyethyl) (MOE); [5mC] = 5-methylcytosine; d = 2'-deoxy (DNA)
This listing pairs substances with measured platelet count.
measured_metric: platelet count

substance	experimental_value
ISIS 449708: 3-8-3, 4-8-4, 2-10-2, 3-10-3 or 4-10-4 MOE microwalk gapmer (Table 46) (antisense eA*e[5mC]*eA*dG*dT*dT*dT*d[5mC]*dT*dG*dG*e[5mC]*eA*eG)	517 ×100/μL
ISIS 416850: MOE gapmer, nucleobases 1275 to 1318 of SEQ ID NO: 1 (Table 8) (antisense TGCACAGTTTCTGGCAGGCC; MOE gapmer, wing and gap sizes not given here)	517 ×100/μL
ISIS 449710: 3-8-3, 4-8-4, 2-10-2, 3-10-3 or 4-10-4 MOE microwalk gapmer (Table 46) (antisense e[5mC]*eA*e[5mC]*dA*dG*dT*dT*dT*d[5mC]*dT*dG*dG*d[5mC]*eA*eG*eG)	463 ×100/μL
ISIS 449709: 3-8-3, 4-8-4, 2-10-2, 3-10-3 or 4-10-4 MOE microwalk gapmer (Table 46) (antisense eG*e[5mC]*eA*e[5mC]*dA*dG*dT*dT*dT*d[5mC]*dT*dG*dG*d[5mC]*eA*eG*eG*e[5mC])	481 ×100/μL
